# Test system: HCMV Strain AD169 in MRC-5 cells
# Protocol Text: Viral qPCR assay HCMV (V0/V1, V2/V3), EC50
# Assay type: cell-based
# Measurement Setup: Human betaherpesvirus 5, AD169, MRC5, viral qPCR assay of Example 191; read-out: HCMV Cell (EC50)
Would you kindly list pEC50 for each of these compounds?
Scale note: pEC50 = -log10(concentration in M).

Consider N#Cc1ccc(CNC(=O)c2cc(O[C@H]3CCN4C(=O)OC[C@@H]4C3)c(-c3cnn(C(F)F)c3)cn2)c(F)c1 . Its measured pEC50 is 6.46

Value of measured pEC50 for the entry O=C(NCc1ccc(C(F)(F)F)cc1)c1cc(O[C@H]2CCN3C(=O)OC[C@@H]3C2)c(-c2cnn(C(F)F)c2)cn1 : 5.22

Reported pEC50 of Cc1cc(-c2cnc(C(=O)NCc3ccc(Cl)cc3)cc2O[C@H]2CCN3C(=O)OC[C@@H]3C2)on1 : 6.96

Record O=C(NCc1ccc(Cl)cc1)c1cc(O[C@H]2CCN3C(=O)OC[C@@H]3C2)c(-c2cnc(C(F)F)o2)cn1 , field pEC50: 6.79

Memo: N#Cc1cnc(C(=O)NCc2ccc(Cl)cc2)cc1O[C@H]1CCN2C(=O)OCC[C@@H]2C1 , reported pEC50: 6.36

compound CC(C)Cn1cc(-c2cnc(C(=O)NCc3ccc(Cl)cc3)cc2O[C@H]2CCN3C(=O)OC[C@@H]3C2)cn1 (racemic) , pEC50 observed: 6.16

// COC/C=C/c1cnc(C(=O)NCc2ccc(Cl)cc2)cc1O[C@H]1CCN2C(=O)OC[C@@H]2C1 [Compound 155b] : pEC50 value = 6.42

So, O=C(NCc1ccc(Cl)cc1)c1cc(O[C@H]2CCN3C(=O)OC[C@@H]3C2)c(-c2ccn(C(F)F)n2)cn1 ? Its pEC50 was 6.55

Record summary for CC(=O)N1CCC(Oc2cc(C(=O)NCc3ccc(Cl)cc3)ncc2/C=C\c2ccccn2)CC1 : reported pEC50 = 6.08

get_value(item= O=C(NCc1ccc(Cl)cc1)c1cc(O[C@H]2CCN3C(=O)OC[C@@H]3C2)c(-c2ncco2)cn1 , readout=pEC50) returns 6.54

# pEC50 (compound: CS(=O)(=O)c1cnc(C(=O)NCc2ccc(Cl)cc2)cc1O[C@H]1CCN2C(=O)OC[C@@H]2C1 ) is 4.90

For record CC(=O)N1CCC(Oc2cc(C(=O)NCc3ccc(Cl)cc3)ncc2C#Cc2cc(C)ccn2)CC1 the listed pEC50 is 5.91

Form: compound = O=C(NCc1ccc(Cl)nc1)c1cc(O[C@H]2CCN3C(=O)OC[C@@H]3C2)c(-c2cnn(C(F)F)c2)cn1 ; pEC50 = 6.12

Consider CN1CCN(c2cc(C(=O)NCc3ccc(Cl)cc3)ncc2C#N)[C@H](CF)C1 . Its measured pEC50 is 6.55

Please fill in: pEC50 reported for Cc1cnc(-c2cnc(C(=O)NCc3ccc(Cl)cc3)cc2OC(C)C)s1 = 4.71

###

# System: VZV in MeWo or MRC5 cells
# Protocol Text: Viral qPCR assay VZV (V0/V1, V2/V3), EC50
# Type: cell-based
# Measurement Setup: Human alphaherpesvirus 3, MeWo, MEWO cells, 10%; read-out: VZV Cell (EC50) MEWO 10%
I'd be grateful if you could share measured EC50 for these entries.
Number only, in nM; omit the unit.

EC50 value, target or system VZV in MeWo or MRC5 cells, for Cn1cc(-c2cnc(C(=O)NCc3ccc(F)c(F)c3F)cc2O[C@H]2CCN3C(=O)OC[C@@H]3C2)cn1 : 155

// returns EC50 for O=C(NCc1ccc(Cl)cc1)c1cc(O[C@H]2CCN3C(=O)OC[C@@H]3C2)c(CN2CCC(O)CC2)cn1 with VZV in MeWo or MRC5 cells; value = 344

CC(=O)N1CCC(Oc2cc(C(=O)NCc3ccc(Cl)cc3)ncc2-c2cnn(C(F)F)c2)CC1 tested on VZV in MeWo or MRC5 cells gave EC50: 298

Observed EC50, VZV in MeWo or MRC5 cells, Cn1cc(-c2cnc(C(=O)NCc3ccc(C#N)cc3)cc2O[C@H]2CCN3C(=O)OC[C@@H]3C2)cn1 (racemic) : 241

Record for CC(C)n1ccc(-c2cnc(C(=O)NCc3ccc(Cl)cc3)cc2O[C@H]2CCN3C(=O)OC[C@@H]3C2)n1 under target or system VZV in MeWo or MRC5 cells: EC50 reported as 159

###

// each record: one item and its IC50 for Human cytomegalovirus DNA polymerase (Human cytomegalovirus, UniProt P08546)
Numeric answer only, unit nM assumed.

Data point: CC(=O)N1CCC(Oc2cc(C(=O)NCc3ccc(Cl)cc3)ncc2-c2ccns2)CC1 ; IC50 = 20.8

Recorded IC50 (compound O=C(NCc1ccc(Cl)cc1)c1cc(O[C@H]2CCN3C(=O)OC[C@@H]3C2)c(CN2CCOCC2)cn1 ): 83.2

Data point: COc1cc(-c2cnc(C(=O)NCc3ccc(Cl)cc3)cc2OC2CCN(C(C)=O)CC2)sn1 ; IC50 = 28.9

# IC50 (compound: O=C(NCc1ccc(Cl)cc1)c1cc(O[C@H]2CCN3C(=O)OC[C@@H]3C2)c(-c2ncco2)cn1 ) is 59.1

###

Exercise: for every item that follows, state its recorded EC50.
# System: HSV-1 Strain F in Vero or MRC5 cells
# Protocol Text: Viral qPCR assay HSV-1 (V0/V1, V2/V3), EC50
# Type: cell-based
# Measurement Setup: Human alphaherpesvirus 1, Vero, VERO cells, 10%; read-out: HSV1 Cell (EC50) VERO 10%
# unit: µM | format: bare number

Lab book: EC50 of CC(=O)N1CCC(Oc2cc(C(=O)NCc3ccc(Cl)cc3)ncc2-c2ccn(C)n2)CC1 [Compound 61] noted as 0.108

The reported value for CCCn1cc(-c2cnc(C(=O)NCc3ccc(Cl)cc3)cc2O[C@H]2CCN3C(=O)OC[C@@H]3C2)cn1 (racemic) [Compound 13] in terms of EC50 is 0.389

The value of EC50 measured for the compound Cc1ncc(-c2cc(O[C@H]3CCN4C(=O)OC[C@@H]4C3)cc(C(=O)NCc3ccc(Cl)cc3)n2)s1 [Compound 102] turned out to be 0.427

// O=C(NCc1ccc(Cl)cc1)c1cc(O[C@H]2CCN3C(=O)OC[C@@H]3C2)c(CCn2cccn2)cn1 [Compound 115] : EC50 value = 1.28

###

# Measured On: UniProtKB P08546
// map IC50 to label using Low (below 20 nM), Mid (20 nM to below 60 nM), High (60 nM or more)

INPUT: Just checking, what class would you give O=C(NCc1ccc(Cl)cc1)c1cc(O[C@H]2CCN3C(=O)OC[C@@H]3C2)c(-c2ccn(C(F)F)n2)cn1 here?
OUTPUT: Low

INPUT: Determine which band this compound sits in: COc1cnc(C(=O)NCc2ccc(Cl)cc2)cc1O[C@H]1CCN2C(=O)OC[C@@H]2C1
OUTPUT: Mid

INPUT: Into which category would you place O=C(NCc1ccc(Cl)cc1)c1cc(O[C@H]2CCN3C(=O)OC[C@@H]3C2)c(-c2cnn3c2COCC3)cn1 ?
OUTPUT: Low

INPUT: Hi, small favor: classify CC(C)(O)C1CN(c2cnc(C(=O)NCc3ccc(Cl)cc3)cc2O[C@H]2CCN3C(=O)OC[C@@H]3C2)C1 by its IC50 when you get a moment.
OUTPUT: Mid

INPUT: Form: Item = O=C(NCc1ccc(Cl)cc1)c1cc(O[C@H]2CCN3C(=O)OC[C@@H]3C2)c(CN2CCSCC2)cn1 ; Class = ?
OUTPUT: Mid

INPUT: Form field 'band' for O=C(NCc1ccc(Cl)cc1)c1cc(O[C@H]2CCN3C(=O)CCC[C@@H]3C2)c(-c2cnn(C(F)F)c2)cn1 (single isomer, unassigned)
OUTPUT: High

INPUT: Into which bin does this compound go? N#Cc1ccc(CNC(=O)c2cc(O[C@H]3CCN4C(=O)OC[C@@H]4C3)c(-c3cnn(C(F)F)c3)cn2)cc1
OUTPUT: Mid

INPUT: Pick a category. Item: COCCn1ccc(-c2cnc(C(=O)NCc3ccc(Cl)cc3)cc2O[C@H]2CCN3C(=O)OC[C@@H]3C2)n1
OUTPUT: Low

INPUT: Assign a bin to O=C(NCc1ccc(Cl)cc1Cl)c1cc(O[C@H]2CCN3C(=O)OC[C@@H]3C2)c(-c2cnn(C(F)F)c2)cn1
OUTPUT: High

INPUT: Just checking, what class would you give CC(=O)N1CCC(Oc2cc(C)nc(C(=O)NCc3ccc(Cl)cc3)c2)CC1 here?
OUTPUT: High

INPUT: State the band of O=C(NCc1ccc(I)cc1)c1cc(O[C@H]2CCN3C(=O)OC[C@@H]3C2)c(-c2cnn(C(F)F)c2)cn1
OUTPUT: High

INPUT: Lab log: O=C(NCc1ccc(Cl)c(F)c1F)c1cc(O[C@H]2CCN3C(=O)OC[C@@H]3C2)c(-c2cnn(C(F)F)c2)cn1 — assign IC50 category
OUTPUT: Low

INPUT: Bin? CC(C)(O)C12CC(C1)N(c1cnc(C(=O)NCc3ccc(Cl)cc3)cc1O[C@H]1CCN3C(=O)OC[C@@H]3C1)C2
OUTPUT: High

INPUT: Bin? O=C(NCc1ccc(Cl)cc1)c1cc(O[C@H]2CCN3C(=O)OC[C@@H]3C2)c(CN2CCC3OCCC32)cn1 (mixture of isomers)
OUTPUT: Low

INPUT: Please classify: Cc1cnc(C(=O)NCc2ccc(Cl)cc2)cc1O[C@H]1CCN2C(=O)CC[C@@H]2C1
OUTPUT: Mid

INPUT: In plain terms, what class is COC1CN(c2cnc(C(=O)NCc3ccc(Cl)cc3)cc2O[C@H]2CCN3C(=O)OC[C@@H]3C2)C1 ?
OUTPUT: Low

INPUT: Could you tell me which band CC(C)(C)n1cc(-c2cnc(C(=O)NCc3ccc(Cl)cc3)cc2O[C@H]2CCN3C(=O)OC[C@@H]3C2)cn1 (racemic) belongs to?
OUTPUT: High

INPUT: Band of Cc1ncc(-c2cnc(C(=O)NCc3ccc(Cl)cc3)cc2O[C@H]2CCN3C(=O)OC[C@@H]3C2)s1 ?
OUTPUT: Low

INPUT: Assign a bin to CC(=O)N1CCC(Oc2cc(C(=O)NCc3ccc(Cl)cc3)ncc2-c2cc[nH]n2)CC1
OUTPUT: High

INPUT: Band for CCc1noc(-c2cnc(C(=O)NCc3ccc(Cl)cc3)cc2O[C@H]2CCN3C(=O)OC[C@@H]3C2)n1 ?
OUTPUT: Low

INPUT: Given CC(=O)N1CCC(Oc2cc(C(=O)NCc3ccc(Cl)cc3)ncc2-c2ccn(C)n2)CC1 , name the class its IC50 places it in.
OUTPUT: High

INPUT: Form field 'band' for CC(=O)N1CCC(Oc2cc(C(=O)NCc3ccc(Cl)cc3)ncc2-c2cn(C)c(C)n2)CC1
OUTPUT: Mid

INPUT: // return the class label for CC(=O)N1CCC(Oc2cc(C(=O)NCc3ccc(Cl)cc3)ncc2-c2ccsn2)CC1
OUTPUT: High

INPUT: Looking at O=C(NCc1cc(F)c(Cl)c(F)c1)c1cc(O[C@H]2CCN3C(=O)OC[C@@H]3C2)c(-c2cnn(C(F)F)c2)cn1 , which class would you pick?
OUTPUT: Low

INPUT: Which band does O=C(NCc1ccc(Cl)cc1)c1cc(O[C@H]2CCN3C(=O)OC[C@@H]3C2)c(-c2cnn(C3CC3)c2)cn1 fall in?
OUTPUT: Low

INPUT: The entry to classify is O=C(NCc1ccc(Cl)cc1)c1cc(O[C@H]2CCN3C(=O)OC[C@@H]3C2)c(CN2CCCC(O)C2)cn1 (mixture of isomers) ; which class holds it?
OUTPUT: High

INPUT: In plain terms, what class is O=C(NCc1ccc(Cl)cc1)c1cc(O[C@H]2CCN3C(=O)OC[C@@H]3C2)c(-c2cnc(C3CC3)o2)cn1 ?
OUTPUT: Low
